# Test system: Escherichia coli
# test.details: Antibacterial activity against Escherichia coli after 24 hrs by broth microdilution method
# Assay type: functional
MIC values by entry
Use µg/mL as the unit, but write only the number.

Worked set:
- molecule: "CC(C)=CCC/C(C)=C/CCC1(C)CC(=O)c2cc(C(=O)O)ccc2O1 (stereo not given)"
  property.label: "MIC"
  endpoint.result: 100
- molecule: "CC1(C)S[C@@H]2[C@H](NC(=O)[C@H](N)c3ccccc3)C(=O)N2[C@H]1C(=O)O [AMPICILLIN]"
  property.label: "MIC"
  endpoint.result: 5
- molecule: "CCCCCCCCC/C=C/CCCc1ccc(O)c(O)c1 [OBLIQUOL B]"
  property.label: "MIC"
  endpoint.result: 5
- molecule: "COc1ccc(/C=C/C(=O)c2c(O)cc(OC)c(OC)c2OC)cc1OC"
  property.label: "MIC"
  endpoint.result: 10

Lab note: need MIC with Escherichia coli for entry CCCCCCCCC/C=C/CCCc1ccc(O)cc1 [OBLIQUOL A] , please look it up.
5
